Provide the recorded pEC50 for the entries that follow.
Tested on: hepatitis C replicon
Experiment Description: hepatitis C replicon EC50
Assay type: cell-based
Measurement Parameters: Hepatitis C virus; Table 3; hepatitis C replicon; read-out: EC50
pEC50: −log10 of the molar value.

(Q) Look up pEC50 for this compound: CC(C)(C)OC(=O)N[C@H]1CCCCC/C=C\[C@@H]2C[C@@]2(C(=O)NS(=O)(=O)C2CC2)NC(=O)[C@@H]2C[C@@H](Oc3nc4cc(Cl)ccc4o3)CN2C1=O
(A) < 7.00

(Q) Look up pEC50 for this compound: Cc1ccc2nc(O[C@@H]3C[C@H]4C(=O)N[C@]5(C(=O)NS(=O)(=O)N(C)C)C[C@H]5/C=C\CCCCC[C@H](NC(=O)OC(C)(C)C)C(=O)N4C3)n(C(C)C)c2c1
(A) > 8.00

(Q) Look up pEC50 for this compound: CC(C)n1c(O[C@@H]2C[C@H]3C(=O)N[C@]4(C(=O)NS(=O)(=O)N(C)C)C[C@H]4/C=C\CCCCC[C@H](NC(=O)OC(C)(C)C)C(=O)N3C2)nc2cc(F)ccc21
(A) > 8.00

(Q) Look up pEC50 for this compound: CNC(=O)c1cccc(N[C@H]2CCCCC/C=C\[C@@H]3C[C@@]3(C(=O)NS(=O)(=O)C3(C)CC3)NC(=O)[C@@H]3C[C@@H](OC(=O)N4Cc5cccc(F)c5C4)CN3C2=O)c1
(A) < 7.00

(Q) Look up pEC50 for this compound: CN(C)S(=O)(=O)NC(=O)[C@@]12C[C@H]1/C=C\CCCCC[C@H](NC(=O)OC(C)(C)C)C(=O)N1C[C@H](Oc3nc4ccccc4n3C)C[C@H]1C(=O)N2
(A) > 8.00

(Q) Look up pEC50 for this compound: CC1(S(=O)(=O)NC(=O)[C@@]23C[C@H]2/C=C\CCCCC[C@H](Nc2nc4ccccc4o2)C(=O)N2C[C@H](OC(=O)N4Cc5cccc(F)c5C4)C[C@H]2C(=O)N3)CC1
(A) 7.00 to 8.00

(Q) Look up pEC50 for this compound: Cc1cccc2nc(O[C@@H]3C[C@H]4C(=O)N[C@]5(C(=O)NS(=O)(=O)C6CC6)C[C@H]5/C=C\CCCCC[C@H](NC(=O)OC(C)(C)C)C(=O)N4C3)sc12
(A) > 8.00

(Q) Look up pEC50 for this compound: CC1(S(=O)(=O)NC(=O)[C@@]23C[C@H]2/C=C\CCCCC[C@H](Nc2ccccc2)C(=O)N2C[C@H](OC(=O)N4Cc5cccc(F)c5C4)C[C@H]2C(=O)N3)CC1
(A) > 8.00

(Q) Look up pEC50 for this compound: CC1(S(=O)(=O)NC(=O)[C@@]23C[C@H]2/C=C\CCCCC[C@H](Nc2ccc(F)c(C(F)(F)F)c2)C(=O)N2C[C@H](OC(=O)N4Cc5cccc(F)c5C4)C[C@H]2C(=O)N3)CC1
(A) > 8.00

(Q) Look up pEC50 for this compound: CO[C@@H]1C[C@H]2C(=O)N[C@]3(C(=O)NS(=O)(=O)C4(C)CC4)C[C@H]3/C=C\CCCCC[C@H](NC(=O)OC(C)(C)C)C(=O)N2C1
(A) < 7.00

From: patent US8048862B2
